The origin of these recorded values is patent US20240228448A1.

molecular target: S1P4 (Homo sapiens); test: competitive S1Ps cell membrane binding assay against [32P]S1P, S1P4; settings: Table 5; read-out: IC50 (nM) S1P4
Assay Readout: IC50

**Q:** Annotate the compound Cc1ccccc1-c1ccc(-c2nc(-c3ccc(CN(C)CCC(=O)O)c(F)c3)no2)cc1C(F)(F)F with its measured IC50.
**A:** > 1000 nM

---

target: S1P1 (Homo sapiens, UniProt P21453); test: competitive S1Ps cell membrane binding assay against [32P]S1P, S1P1; details: IC50 for S1P1, running text
Sequence (P21453 whole entry, species assumed): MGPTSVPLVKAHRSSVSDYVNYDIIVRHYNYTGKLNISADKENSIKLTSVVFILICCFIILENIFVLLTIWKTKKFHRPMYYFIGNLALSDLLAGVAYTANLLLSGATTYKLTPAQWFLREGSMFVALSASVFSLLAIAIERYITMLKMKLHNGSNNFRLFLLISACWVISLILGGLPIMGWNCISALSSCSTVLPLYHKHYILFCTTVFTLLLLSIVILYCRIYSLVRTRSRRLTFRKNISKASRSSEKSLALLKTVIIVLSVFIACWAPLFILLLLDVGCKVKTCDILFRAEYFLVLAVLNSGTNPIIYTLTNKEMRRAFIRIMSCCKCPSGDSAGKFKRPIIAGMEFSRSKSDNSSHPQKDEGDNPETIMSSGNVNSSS
pIC50: −log10 of the molar value.
Assay Readout: pIC50

{"Molecule": "Cc1ccccc1-c1ccc(-c2nc(-c3ccc(CN(C)CCCC(=O)O)c(F)c3)no2)cc1C(F)(F)F [TZ82-48]", "pIC50": "> 7.70"}

Now look at this one.
**Q:** Param request: pIC50 | system S1P1 (Homo sapiens, UniProt P21453) | item Cc1ccccc1-c1ccc(-c2nc(-c3ccc(CN(C)CC(=O)O)c(F)c3)no2)cc1C(F)(F)F [TZ82-47]
**A:** > 7.70

---

target: S1P1 (Homo sapiens, UniProt P21453); test: competitive S1Ps cell membrane binding assay against [32P]S1P, S1P1; conditions: read-out: IC50 (nM) S1P1; Table 7
Each entry below carries its recorded IC50.
Please state the figure in nM; there is no need to write the unit.

{"Compound": "Cc1ccccc1-c1ccc(-c2nc(-c3ccc(CN(C)CC(=O)O)c(F)c3)no2)cc1C(F)(F)F [TZ82-47]", "Unit Label": "nM", "Recorded Result": 7.6}

Now look at this one.
**Q:** Param request: IC50 | system S1P1 (Homo sapiens, UniProt P21453) | item Cc1ccccc1-c1ccc(-c2nc(-c3ccc(CN(C)CCCC(=O)O)c(F)c3)no2)cc1C(F)(F)F [TZ82-48]
**A:** 0.8

---

Each entry below carries its recorded IC50.
target: S1P1 (Homo sapiens, UniProt P21453); assay: competitive S1Ps cell membrane binding assay against [32P]S1P, S1P1; conditions: IC50 (nM) S1P1, Table 5
Please state the figure in nM; there is no need to write the unit.

Known IC50 results, listed for orientation:
{"Compound": "Nc1ccc(-c2noc(-c3ccc(OCCF)c(C(F)(F)F)c3)n2)cc1", "Unit Label": "nM", "IC50": 44}
{"Compound": "CN(CCO)Cc1ccc(-c2noc(-c3ccc(OCCF)c(C(F)(F)F)c3)n2)cc1F", "Unit Label": "nM", "IC50": 14.6}

**Q:** Annotate the compound Cc1ccccc1-c1ccc(-c2nc(-c3ccc(CN(C)CCNC(=O)OC(C)(C)C)c(F)c3)no2)cc1C(F)(F)F with its measured IC50.
**A:** 23.8

**Q:** Annotate the compound OCCn1ccc2cc(-c3noc(-c4ccc(OCCF)c(C(F)(F)F)c4)n3)ccc21 with its measured IC50.
**A:** 57

**Q:** Annotate the compound Cc1ccccc1-c1ccc(-c2nc(-c3cccc4[nH]ccc34)no2)cc1C(F)(F)F with its measured IC50.
**A:** 1.1

**Q:** Annotate the compound Cc1ccccc1-c1ccc(-c2nc(-c3ccc(COCCCCCO)c(F)c3)no2)cc1C(F)(F)F with its measured IC50.
**A:** 4.9

---

target: S1P1 (Homo sapiens, UniProt P21453); experiment: competitive S1Ps cell membrane binding assay against [32P]S1P, S1P1; details: read-out: IC50 (nM) S1P1; Table 5
Please use 1 for IC50 under 30 nM and 0 for everything else, ties included.

{"Molecular String": "FCCOc1ccc(-c2nc(-c3cccc4cc[nH]c34)no2)cc1C(F)(F)F", "Class Assignment": 0}
{"Molecular String": "FCCOc1ccc(-c2nc(-c3ccc4cc[nH]c4c3)no2)cc1C(F)(F)F", "Class Assignment": 0}
{"Molecular String": "Cc1ccccc1-c1ccc(-c2nc(-c3ccc(CN(C)CCCCO)c(F)c3)no2)cc1C(F)(F)F", "Class Assignment": 1}
{"Molecular String": "CN(CCC(=O)O)Cc1ccc(-c2noc(-c3ccc(OCCF)c(C(F)(F)F)c3)n2)cc1I", "Class Assignment": 0}

Moving on to the next compound.
**Q:** Answer whether the compound Cc1ccccc1-c1ccc(-c2nc(-c3ccc(CNCCCO)c(F)c3)no2)cc1C(F)(F)F has IC50 strictly less than 30 nM
**A:** 1

---

Reported values: IC50 for UniProtKB O95136, one per item.
Sequence (O95136 whole entry, species assumed): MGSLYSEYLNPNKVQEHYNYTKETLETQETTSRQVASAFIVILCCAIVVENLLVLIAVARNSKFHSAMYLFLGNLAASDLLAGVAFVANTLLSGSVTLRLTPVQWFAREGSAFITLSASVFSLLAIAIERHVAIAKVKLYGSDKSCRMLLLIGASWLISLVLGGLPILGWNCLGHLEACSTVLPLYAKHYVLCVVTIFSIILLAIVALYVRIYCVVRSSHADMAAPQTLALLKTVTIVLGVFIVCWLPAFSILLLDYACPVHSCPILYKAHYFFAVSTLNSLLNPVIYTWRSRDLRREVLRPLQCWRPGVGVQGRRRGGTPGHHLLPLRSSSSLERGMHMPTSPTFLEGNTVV

Known IC50 results, listed for orientation:
{"Molecular String": "Cc1ccccc1-c1ccc(-c2nc(-c3ccc(CN(C)CCCC(=O)O)c(F)c3)no2)cc1C(F)(F)F", "IC50": "> 1000 nM"}
{"Molecular String": "CN(CCC(=O)O)Cc1ccc(-c2noc(-c3ccc(OCCF)c(C(F)(F)F)c3)n2)cc1F", "IC50": "> 1000 nM"}

Now look at this one.
**Q:** Param request: IC50 | system UniProtKB O95136 | item Cc1ccccc1-c1ccc(-c2nc(-c3ccc(CN(C)CC(=O)O)c(F)c3)no2)cc1C(F)(F)F
**A:** > 1000 nM

---

target: UniProtKB Q9H228; experiment: competitive S1Ps cell membrane binding assay against [32P]S1P, S1P5; settings: Table 6; read-out: IC50 for S1P5
Assay Readout: IC50 (nM)
Please state the figure in nM; there is no need to write the unit.

**Q:** Annotate the compound Cc1ccccc1-c1ccc(-c2nc(-c3ccc(CN(C)CCCC(=O)O)c(F)c3)no2)cc1C(F)(F)F with its measured IC50.
**A:** 194

---

Reported values: pIC50 for S1P3 (Homo sapiens), one per item.
A value of pIC50 is the negative decimal logarithm of a concentration given in moles per litre.

Known pIC50 results, listed for orientation:
{"Molecular String": "Cc1ccccc1-c1ccc(-c2nc(-c3ccc(CN(C)CCCC(=O)O)c(F)c3)no2)cc1C(F)(F)F", "Assay System": "S1P3 (Homo sapiens)", "Recorded Result": 6.72}
{"Molecular String": "Cc1ccccc1-c1ccc(-c2nc(-c3ccc(CN(C)CCCO)c(F)c3)no2)cc1C(F)(F)F", "Assay System": "S1P3 (Homo sapiens)", "Recorded Result": 6.38}

**Q:** Param request: pIC50 | system S1P3 (Homo sapiens) | item Cc1ccccc1-c1ccc(-c2nc(-c3ccc(CN(C)CCO)c(F)c3)no2)cc1C(F)(F)F
**A:** 6.34

---

Molecular target: S1P4 (Homo sapiens)
Sequence (O95977 1-384): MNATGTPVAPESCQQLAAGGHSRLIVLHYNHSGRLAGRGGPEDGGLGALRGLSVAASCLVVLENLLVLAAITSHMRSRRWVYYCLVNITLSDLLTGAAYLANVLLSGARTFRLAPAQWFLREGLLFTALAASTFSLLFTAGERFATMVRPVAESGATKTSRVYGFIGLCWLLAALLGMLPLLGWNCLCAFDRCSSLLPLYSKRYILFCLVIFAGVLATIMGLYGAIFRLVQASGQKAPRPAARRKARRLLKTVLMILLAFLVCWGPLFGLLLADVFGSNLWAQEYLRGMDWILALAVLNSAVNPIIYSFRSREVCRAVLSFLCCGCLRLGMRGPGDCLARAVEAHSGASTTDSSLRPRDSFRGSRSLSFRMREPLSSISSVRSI
Test: competitive S1Ps cell membrane binding assay against [32P]S1P, S1P4
Conditions: Table 6; read-out: IC50 for S1P4
pIC50: −log10 of the molar value.
Assay Readout: pIC50

Known pIC50 results, listed for orientation:
{"Compound": "CN(CCCO)Cc1ccc(-c2noc(-c3ccc(OCCF)c(C(F)(F)F)c3)n2)cc1F [TZ82-112]", "Recorded Result": "< 6.00"}
{"Compound": "CN(CCC(=O)O)Cc1ccc(-c2noc(-c3ccc(OCCF)c(C(F)(F)F)c3)n2)cc1F [TZ82-24]", "Recorded Result": "< 6.00"}
{"Compound": "Cc1ccccc1-c1ccc(-c2nc(-c3ccc(CN(C)CCCO)c(F)c3)no2)cc1C(F)(F)F [TZ82-52]", "Recorded Result": "< 6.00"}

**Q:** Annotate the compound Cc1ccccc1-c1ccc(-c2nc(-c3ccc(CN(C)CCCC(=O)O)c(F)c3)no2)cc1C(F)(F)F [TZ82-48] with its measured pIC50.
**A:** < 6.00

**Q:** Annotate the compound Cc1ccccc1-c1ccc(-c2nc(-c3ccc(CN(C)CCO)c(F)c3)no2)cc1C(F)(F)F [TZ82-51] with its measured pIC50.
**A:** < 6.00

**Q:** Annotate the compound Cc1ccccc1-c1ccc(-c2nc(-c3ccc(CN(C)CC(=O)O)c(F)c3)no2)cc1C(F)(F)F [TZ82-47] with its measured pIC50.
**A:** < 6.00

---

target: S1P5 (Homo sapiens, UniProt Q9H228); assay: competitive S1Ps cell membrane binding assay against [32P]S1P, S1P5; details: Table 5; read-out: IC50 (nM) S1P5
Sequence (Q9H228 whole entry, species assumed): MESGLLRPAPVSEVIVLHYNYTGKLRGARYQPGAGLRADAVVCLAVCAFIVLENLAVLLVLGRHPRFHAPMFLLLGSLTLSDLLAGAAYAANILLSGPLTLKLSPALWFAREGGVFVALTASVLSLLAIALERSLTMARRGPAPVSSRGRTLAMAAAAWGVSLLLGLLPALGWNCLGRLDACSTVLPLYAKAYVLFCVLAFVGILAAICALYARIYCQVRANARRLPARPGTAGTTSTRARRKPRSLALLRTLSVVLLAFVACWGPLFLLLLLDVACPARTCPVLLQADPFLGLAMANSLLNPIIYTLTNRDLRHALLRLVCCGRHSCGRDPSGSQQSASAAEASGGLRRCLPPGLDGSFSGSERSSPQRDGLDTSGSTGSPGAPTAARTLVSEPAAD
Assay Readout: IC50

Known IC50 results, listed for orientation:
{"Compound": "Cc1ccccc1-c1ccc(-c2nc(-c3ccc(CNCCC(=O)O)c(F)c3)no2)cc1C(F)(F)F [TZ82-94]", "Recorded Result": "7.2 nM"}
{"Compound": "COc1ccc(-c2nc(-c3ccc(CN(C)CCCO)cc3)no2)cc1C(F)(F)F [TZ82-126]", "Recorded Result": "1940 nM"}
{"Compound": "Cc1ccccc1-c1ccc(-c2nc(-c3ccc(CCCCO)cc3)no2)cc1C(F)(F)F [TZ82-2]", "Recorded Result": "764 nM"}
{"Compound": "CN(CCCO)Cc1ccc(-c2noc(-c3ccc(OCCF)c(C(F)(F)F)c3)n2)cc1F [TZ82-112]", "Recorded Result": "234 nM"}
{"Compound": "Cc1ccccc1-c1ccc(-c2nc(-c3ccc(CNCCCO)c(F)c3)no2)cc1C(F)(F)F [TZ82-95]", "Recorded Result": "12.8 nM"}

Now look at this one.
**Q:** Annotate the compound Cc1ccccc1-c1ccc(-c2nc(-c3ccc(CN(C)CCCC(=O)O)c(F)c3)no2)cc1C(F)(F)F [TZ82-48] with its measured IC50.
**A:** 23.1 nM
